Target: T1, human SIRPβ1 domain 1 (D1) Fc fusion (human, UniProt O00241 30-148)
T1 construct: Made in HEK293/T cells with a heterologous signal peptide; also called Human SIRPβ1 D1-Fc; Human SIRPβ1-Fc; not shown: C-terminal human IgG1 Fc
T1 sequence (O00241 30-148 limits assumed): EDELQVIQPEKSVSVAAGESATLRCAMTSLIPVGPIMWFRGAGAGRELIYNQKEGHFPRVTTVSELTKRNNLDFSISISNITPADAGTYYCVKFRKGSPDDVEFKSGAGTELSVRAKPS
Test: Octet, IgG avid
reportedProperty: pKd
Please keep in mind that pKd is minus log10 of the molar concentration; only the number is needed.

binder: SB-40 (antibody, V domains shown, IgG; also called SB-40 (p)) VH: QVQLVQSGAEVKKPGASVKVSCKASGYTFTSYYMSWVRQAPGQGLEWMGIINPSGGSTSYAQKFQGRVTMTRDTSTSTVYMELSSLRSEDTAVYYCARDTGEYSYSPHGMDVWGQGTTVTVSS VL: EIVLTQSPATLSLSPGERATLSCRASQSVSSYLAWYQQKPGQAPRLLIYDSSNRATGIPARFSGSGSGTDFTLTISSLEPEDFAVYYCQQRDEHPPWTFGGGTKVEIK
pKd: 8.02

binder: SB-31 (antibody, V domains shown, IgG) VH: QVQLVQSGAEVKKPGASVKVSCKASGYTFTSYYMHWVRQAPGQGLEWMGIINPGGGSTSYAQKFQGRVTMTRDTSTSTVYMELSSLRSEDTAVYYCAREGLYSSGWYIDVWGQGTLVTVSS VL: DIQMTQSPSSVSASVGDRVTITCRASQGISSWLAWYQQKPGKAPKLLIYAASSLQSGVPSRFSGSGSGTDFTLTISSLQPEDFATYYCQQAVSHPFTFGGGTKVEIK
pKd: 8.43

Now take the following binder into account.
Query string: Query (binder): SB-8 (antibody, V domains shown, IgG; also called SB-8 (p)) VH: QVQLQESGPGLVKPSETLSLTCAVSGYSISSGYYWGWIRQPPGKGLEWIGSIYHSGSTYYNPSLKSRVTISVDTSKNQFSLKLSSVTAADTAVYYCARGGAMTPAGMDVWGQGTTVTVSS VL: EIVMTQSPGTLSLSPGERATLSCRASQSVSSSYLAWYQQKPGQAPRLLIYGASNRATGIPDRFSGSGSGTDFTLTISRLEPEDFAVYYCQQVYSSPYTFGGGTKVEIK ; field requested: pKd
Result string: 8.57
